pIC50 values, listed per item
- Test target: human ALK5 (ALK5 T204D kinase domain) (Homo sapiens, UniProt P36897, T204D)
- Construct: The kinase domain of human ALK5 (amino acids 200-503)
- Sequence (P36897 200-503 T204D): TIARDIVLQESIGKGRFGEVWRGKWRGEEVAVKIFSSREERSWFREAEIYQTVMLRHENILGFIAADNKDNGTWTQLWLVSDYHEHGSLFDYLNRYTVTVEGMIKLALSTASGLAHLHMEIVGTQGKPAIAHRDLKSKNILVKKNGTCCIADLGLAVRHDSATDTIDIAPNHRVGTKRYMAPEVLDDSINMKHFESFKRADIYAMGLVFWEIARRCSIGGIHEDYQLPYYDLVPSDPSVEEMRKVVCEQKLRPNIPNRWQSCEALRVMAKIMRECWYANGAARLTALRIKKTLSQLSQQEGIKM
- Assay method text: ALK5 kinase assay, [33P] phosphate incorporation into casein
- Test settings: casein substrate, 1 μM unlabelled ATP
The scale used: pIC50 is minus the common logarithm of the concentration in molar units.

CNc1cc(-c2cncc(-c3ccc(C(=O)N4CCN(C)CC4)cc3)c2)cc(-c2ccccn2)n1 [Example 2.106] :: 8.05
[2H]C([2H])([2H])Nc1cc(-c2cncc(-c3ccc(CN4CCNCC4)cc3)c2)cc(-c2ccccn2)n1 :: 7.85
CNc1cc(-c2cncc(-c3cnn(C4CCNCC4)c3)c2)cc(-c2ccn(C)n2)n1 :: 8.30
CCNc1cc(-c2cncc(-c3cccc(CN4CCN(C(C)(C)C)CC4)c3)c2)cc(-c2ccccn2)n1 :: 6.81
[2H]C([2H])([2H])Nc1cc(-c2cncc(-c3cnn(C)c3)c2)cc(-c2ccccn2)n1 :: 7.89

# value of pIC50, human ALK5 (ALK5 T204D kinase domain) (Homo sapiens, UniProt P36897, T204D), item CC(C)(O)c1cc(-c2cncc(-c3ccc(CN4CCN(C(C)(C)C)CC4)cc3)c2)cc(-c2ccccn2)n1 = 7.44

Record for [2H]C([2H])([2H])Nc1cc(-c2cncc(-c3ccc(CN4CCN(C(C)(C)C)CC4)cc3)c2)cc(-c2ccccn2)n1 under target or system human ALK5 (ALK5 T204D kinase domain) (Homo sapiens, UniProt P36897, T204D): pIC50 reported as 7.89

The values you see were collected from patent US8343966B2.
